Test system: HA‐h cells (human astrocyte‐hippocampal)
assay remarks: MTT cell viability assay, HA‐h
Format: cell-based
condition summary: HA‐h, MTT; cisplatin alone or with IAP inhibitor (10 μmol/L)
quantity name: IC50

Query block: Recorded IC50 of N.N.[Cl][Pt][Cl] [Cisplatin, cisplatin] , please.
Result block: > 5 µM

----------
System: BJ cells (normal fibroblast cell line)
assay remarks: MTT cell viability assay, BJ
Type: cell-based
condition summary: BJ, MTT; cisplatin alone or with IAP inhibitor (10 μmol/L)
quantity name: IC50

Query block: Recorded IC50 of N.N.[Cl][Pt][Cl] [Cisplatin, cisplatin] , please.
Result block: > 5 µM
